The reported numbers originate from patent US20250188092A1.

System: DPX2 cells
Conditions: 6.25 μM, 24 h
// DPX2 Viability @ 6.25 μM lookup, one value per entry
Please state the figure in %; there is no need to write the unit.

MOLECULE	DPX2 Viability @ 6.25 μM / %
CO[C@H]1/C=C/O[C@@]2(C)Oc3c(C)c(O)c4c(=O)c(c5oc6cc(C)cc(N7CCN(CCn8ccnc8)CC7)c6nc-5c4c3C2=O)NC(=O)/C(C)=C\C=C\[C@H](C)[C@H](O)[C@@H](C)[C@@H](O)[C@@H](C)[C@H](OC(C)=O)[C@@H]1C [Compound 30e]	130

Which measured DPX2 Viability @ 6.25 μM value corresponds to CO[C@H]1/C=C/O[C@@]2(C)Oc3c(C)c(O)c4c(=O)c(c5oc6cccc(OCc7ccc(CN8CCN(C(=O)Cn9ccnc9)CC8)cc7)c6nc-5c4c3C2=O)NC(=O)/C(C)=C\C=C\[C@H](C)[C@H](O)[C@@H](C)[C@@H](O)[C@@H](C)[C@H](OC(C)=O)[C@@H]1C [Compound 16b] ?
117

What about CO[C@H]1/C=C/O[C@@]2(C)Oc3c(C)c(O)c4c(=O)c(c5oc6cccc(OCCCCN7CCN(C(=O)CN8CCOCC8)CC7)c6nc-5c4c3C2=O)NC(=O)/C(C)=C\C=C\[C@H](C)[C@H](O)[C@@H](C)[C@@H](O)[C@@H](C)[C@H](OC(C)=O)[C@@H]1C ?
106

What about CO[C@H]1/C=C/O[C@@]2(C)Oc3c(C)c(O)c4c(=O)c(c5oc6cc(N7CCN(C(=O)c8ccccc8)CC7)cc(OCc7ccc(CN8CCOCC8)cc7)c6nc-5c4c3C2=O)NC(=O)/C(C)=C\C=C\[C@H](C)[C@H](O)[C@@H](C)[C@@H](O)[C@@H](C)[C@H](OC(C)=O)[C@@H]1C [Compound 17m] ?
89
